Tested on: NCI-H1355
Experiment: relative viability (nuclei count vs DMSO), 5 days (fraction); higher = more cells survive
Details: first compound 0.1265 µM
Quick rule for you: relative viability under 0.7 gets MET, anything else gets NOT MET.

>  <compound>
Cc1sc2c(c1C)C(c1ccc(Cl)cc1)=N[C@@H](CC(=O)OC(C)(C)C)c1nnc(C)n1-2 [JQ1] + NC(=O)Nc1cc(-c2cccc(F)c2)sc1C(=O)N[C@H]1CCCNC1 [AZD7762] (partner 0.2 µM)

>  <classification>
NOT MET

$$$$

Exercise: Does this compound meet the criterion relative viability < 0.7? Cc1sc2c(c1C)C(c1ccc(Cl)cc1)=N[C@@H](CC(=O)OC(C)(C)C)c1nnc(C)n1-2 [JQ1] + CC(C)C[C@H](NC(=O)[C@H](Cc1ccccc1)NC(=O)c1cnccn1)B(O)O [Bortezomib] (partner 0.002 µM)
Key: NOT MET

Exercise: Now give it for Cc1sc2c(c1C)C(c1ccc(Cl)cc1)=N[C@@H](CC(=O)OC(C)(C)C)c1nnc(C)n1-2 [JQ1] + Cc1nc(NC(=O)N2CCC[C@H]2C(N)=O)sc1-c1ccnc(C(C)(C)C(F)(F)F)c1 [Alpelisib] (partner 2 µM) too.
Key: NOT MET

Exercise: Now give it for Cc1sc2c(c1C)C(c1ccc(Cl)cc1)=N[C@@H](CC(=O)OC(C)(C)C)c1nnc(C)n1-2 [JQ1] + COc1cccc2cc(-c3nc([C@H]4CC[C@H](C(=O)O)CC4)n4ncnc(N)c34)[nH]c12 [OSI-027] (partner 0.5 µM) too.
Key: MET

Exercise: Now give it for Cc1sc2c(c1C)C(c1ccc(Cl)cc1)=N[C@@H](CC(=O)OC(C)(C)C)c1nnc(C)n1-2 [JQ1] + Nc1nc2[nH]cc(CCc3ccc(C(=O)N[C@@H](CCC(=O)O)C(=O)O)cc3)c2c(=O)[nH]1 [Pemetrexed] (partner 0.2 µM) too.
Key: NOT MET

Exercise: Now give it for Cc1sc2c(c1C)C(c1ccc(Cl)cc1)=N[C@@H](CC(=O)OC(C)(C)C)c1nnc(C)n1-2 [JQ1] + CS(=O)(=O)N1CCN(Cc2cc3nc(-c4cccc5[nH]ncc45)nc(N4CCOCC4)c3s2)CC1 [Pictilisib] (partner 1 µM) too.
Key: MET

====

System: SK-MES-1
Assay: relative viability (nuclei count vs DMSO), 5 days (fraction); higher = more cells survive
Conditions: first compound 0.8 µM
Quick rule for you: relative viability under 1 gets class 1, anything else gets class 0.

>  <compound>
O=c1[nH]c2ccccc2n1C1CCN(CCCC(c2ccc(F)cc2)c2ccc(F)cc2)CC1 [Pimozide] + Nc1nc2[nH]cc(CCc3ccc(C(=O)N[C@@H](CCC(=O)O)C(=O)O)cc3)c2c(=O)[nH]1 [Pemetrexed] (partner 0.2 µM)

>  <classification>
class 1

$$$$
>  <compound>
Cc1cnc(-c2cnc(NCCNc3ccc(C#N)cn3)nc2-c2ccc(Cl)cc2Cl)[nH]1 + O=C(c1cc(Cc2n[nH]c(=O)c3ccccc23)ccc1F)N1CCN(C(=O)C2CC2)CC1 [Olaparib] (partner 8 µM)

>  <classification>
class 1

$$$$

Okay, now this compound:
Exercise: Does this compound meet the criterion relative viability < 1? Cc1cnc(-c2cnc(NCCNc3ccc(C#N)cn3)nc2-c2ccc(Cl)cc2Cl)[nH]1 + CCNC(=O)c1noc(-c2cc(C(C)C)c(O)cc2O)c1-c1ccc(CN2CCOCC2)cc1 [Luminespib] (partner 0.01 µM)
Key: class 1

Where do these numbers come from? They come from the supplement of paper PMC10307832.
